Every entry's value here was drawn from patent US10525055B2.

Can you tell me % remaining at time point in minutes, 15 min for the items I'm about to list?
- experimentalProtocol: Plasma stability assay, monkey plasma
- Type: in vitro ADME, cynomolgus monkey
- cond: 37° C., 2 μM, 15 min (as headed)
Numbers only, in %.

C=C1CC[C@@]2(O)C3Cc4ccc(OCOC(=O)OCCCCCCCCCCCC)c5c4[C@@]2(CCN3CC2CC2)[C@H]1O5 [Compound 24]
90.7
C=C1CC[C@@]2(O)C3Cc4ccc(OC(=O)OCCCCCCCCCCCC)c5c4[C@@]2(CCN3CC2CC2)[C@H]1O5 [Compound 6]
88.7
C=C1CC[C@@]2(O)C3Cc4ccc(OC(=O)CCCCCCC/C=C/CCCCCCCC)c5c4[C@@]2(CCN3CC2CC2)[C@H]1O5 [Compound 15]
74.5
CCCCCCCCCCCCCCCC(=O)OC1CCCn2c1nc(C)c(CCN1CCC(c3noc4cc(F)ccc34)CC1)c2=O (centres unmarked) [Paliperidone palmitate, reference compound]
92

Could you now look at the following compound, please?
INPUT: Hello, please tell me recorded % remaining at time point in minutes, 15 min for this one: CCCCCCCCCCCC(=O)OCN1C(=O)CCc2ccc(OCCCCN3CCN(c4cccc(Cl)c4Cl)CC3)cc21 [Aripiprazole lauroxil, reference compound]
OUTPUT: 95.2

====

- targetOrTestSystem: DOR (Homo sapiens)
- Sequence (P41143 whole entry): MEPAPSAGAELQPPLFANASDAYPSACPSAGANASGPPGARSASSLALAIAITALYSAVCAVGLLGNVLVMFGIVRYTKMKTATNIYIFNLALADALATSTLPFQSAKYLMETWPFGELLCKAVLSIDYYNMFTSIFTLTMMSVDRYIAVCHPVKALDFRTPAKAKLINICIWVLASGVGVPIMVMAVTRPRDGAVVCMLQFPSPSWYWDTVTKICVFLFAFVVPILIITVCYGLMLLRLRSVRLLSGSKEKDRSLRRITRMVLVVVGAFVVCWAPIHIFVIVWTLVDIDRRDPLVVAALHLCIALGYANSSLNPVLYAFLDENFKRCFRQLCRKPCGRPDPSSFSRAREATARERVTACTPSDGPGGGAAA
pIC50: −log10 of the molar value.
metricName: pIC50

INPUT: Recall and state the measured pIC50 for CCCCCCCCCCCOC(=O)OCOc1ccc2c3c1O[C@H]1C(=O)CC[C@@]4(O)C(C2)N(CC2CC2)CC[C@]314 .
OUTPUT: < 5.00

====

- experimentalProtocol: Dog pharmacokinetic studies, deep intramuscular
- Type: in vivo, Beagle dogs
- cond: dog IM, 48 mg/kg, Sesame oil + 1% Benzyl Alcohol
Give Half-life t1/2 (hour) prodrug for every item shown.
Give bare numbers, in h.

Past entries and their recorded results:
C=C1CC[C@@]2(O)C3Cc4ccc(OC(=O)OCCCCCCCCCCC)c5c4[C@@]2(CCN3CC2CC2)[C@H]1O5 [Compound 3]
63.1
C=C1CC[C@@]2(O)C3Cc4ccc(OCOC(=O)OCCCCCCCCCC)c5c4[C@@]2(CCN3CC2CC2)[C@H]1O5 [Compound 35]
70

Please go through the list and note Half-life t1/2 (hour) prodrug for each compound.
1. C=C1CC[C@@]2(O)C3Cc4ccc(OC(=O)CCCCCCC/C=C/CCCCCCCC)c5c4[C@@]2(CCN3CC2CC2)[C@H]1O5 [Compound 15]
2. C=C1CC[C@@]2(O)C3Cc4ccc(OCOC(=O)OCCCCCCCCCCC)c5c4[C@@]2(CCN3CC2CC2)[C@H]1O5 [Compound 5]
3. C=C1CC[C@@]2(O)C3Cc4ccc(OCOC(=O)OCCCCCCCC/C=C/CCCCCCCC)c5c4[C@@]2(CCN3CC2CC2)[C@H]1O5 [Compound 1]

OUTPUT:
518
70.9
261

====

- experimentalProtocol: Polymorph screening of solid state drug substances
- cond: Acetone; target conc. 100 mg/ml; 50 °C
metricName: Visual observation 50° C.

CCCCCCCCCCCCCCCC(=O)Oc1ccc2c3c1O[C@H]1C(=O)CC[C@@]4(O)C(C2)N(CC2CC2)CC[C@]314
Clear
C=C1CC[C@@]2(O)C3Cc4ccc(OC(=O)NC(C)(C)C)c5c4[C@@]2(CCN3CC2CC2)[C@H]1O5
Clear
C=C1CC[C@@]2(O)C3Cc4ccc(OC(=O)CCCCCCCCCCCCCCCCCCC)c5c4[C@@]2(CCN3CC2CC2)[C@H]1O5
Clear

====

Can you tell me % remaining at time point in minutes, 15 min for the items I'm about to list?
- experimentalProtocol: Plasma stability assay, rat plasma
- Type: in vitro ADME
- cond: 37° C., 10 μM, 15 min
Numbers only, in %.

Please review the entries below; each comes with its answer.
C=C1CC[C@@]2(O)C3Cc4ccc(OC(=O)OCCCCCCCCCCCCC)c5c4[C@@]2(CCN3CC2CC2)[C@H]1O5
65.7
C=C1CC[C@@]2(O)C3Cc4ccc(OC(=O)OCCCCCCCCCCCCCC)c5c4[C@@]2(CCN3CC2CC2)[C@H]1O5
123.2
C=C1CC[C@@]2(O)C3Cc4ccc(OC(=O)CCCCCCCCCCC)c5c4[C@@]2(CCN3CC2CC2)[C@H]1O5 [Compound 59, reference compound]
5.9
CCCCCCCCCCCCCCCCOC(=O)Oc1ccc2c3c1O[C@H]1C(=O)CC[C@@]4(O)C(C2)N(CC2CC2)CC[C@]314
73.5
C=C1CC[C@@]2(O)C3Cc4ccc(OC(=O)CCCCCCC/C=C/CCCCCCCC)c5c4[C@@]2(CCN3CC2CC2)[C@H]1O5
72
C=C1CC[C@@]2(O)C3Cc4ccc(OC(=O)OCCCCCCCCCC)c5c4[C@@]2(CCN3CC2CC2)[C@H]1O5
0.6
CCCCCCCCCCCCCCCCCC(=O)Oc1ccc2c3c1O[C@H]1C(=O)CC[C@@]4(O)C(C2)N(CC2CC2)CC[C@]314
98.8
CCCCCCCCCCCCCC(=O)Oc1ccc2c3c1O[C@H]1C(=O)CC[C@@]4(O)C(C2)N(CC2CC2)CC[C@]314
10.5
CCCCCCCCCCOC(=O)Oc1ccc2c3c1O[C@H]1C(=O)CC[C@@]4(O)C(C2)N(CC2CC2)CC[C@]314
0
CCCCCCCCCCCCCCCC(=O)Oc1ccc2c3c1O[C@H]1C(=O)CC[C@@]4(O)C(C2)N(CC2CC2)CC[C@]314
77.3

For the 3 compounds below, give their % remaining at time point in minutes, 15 min values.
1. CCCCCCCCCCCCOC(=O)Oc1ccc2c3c1O[C@H]1C(=O)CC[C@@]4(O)C(C2)N(CC2CC2)CC[C@]314
2. C=C1CC[C@@]2(O)C3Cc4ccc(OCOC(=O)OCCCCCCCCCCCCCC)c5c4[C@@]2(CCN3CC2CC2)[C@H]1O5
3. C=C1CC[C@@]2(O)C3Cc4ccc(OCOC(=O)OCCCCCCCCCCCC)c5c4[C@@]2(CCN3CC2CC2)[C@H]1O5

OUTPUT:
[0.7, 82.6, 32]

====

- targetOrTestSystem: MOR (Homo sapiens, UniProt P35372)
- Sequence (P35372 whole entry): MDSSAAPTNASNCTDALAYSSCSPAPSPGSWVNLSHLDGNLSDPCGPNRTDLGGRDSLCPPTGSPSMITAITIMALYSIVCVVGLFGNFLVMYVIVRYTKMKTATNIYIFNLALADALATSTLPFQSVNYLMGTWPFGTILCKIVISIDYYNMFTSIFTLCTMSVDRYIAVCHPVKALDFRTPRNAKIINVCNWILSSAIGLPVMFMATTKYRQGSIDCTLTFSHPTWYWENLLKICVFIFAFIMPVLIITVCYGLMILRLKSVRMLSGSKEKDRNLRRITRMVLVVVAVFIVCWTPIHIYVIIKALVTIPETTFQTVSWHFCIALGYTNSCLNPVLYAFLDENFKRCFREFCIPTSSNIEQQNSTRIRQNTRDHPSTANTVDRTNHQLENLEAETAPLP
metricName: pIC50
Numbers only, as −log10 of the molar value.

INPUT: Give pIC50 only, for C=C1CC[C@@]2(O)C3Cc4ccc(OC(=O)CCCCCCCCCCCCCCCCCCCCC)c5c4[C@@]2(CCN3CC2CC2)[C@H]1O5 , using MOR (Homo sapiens, UniProt P35372) data.
OUTPUT: 7.90

====

So I've got a bunch of compounds here, and I need their % remaining at time point in minutes, 1440 min values.
- experimentalProtocol: Plasma stability assay, rat plasma
- Type: in vitro ADME
- cond: 37° C., 10 μM, 1440 min
- Experimental: Plasma stability determination of the test compounds in rat, dog, cynomolgus monkey and human plasma is performed using HPLC-MS. […] Five time points are analyzed (0, 15, 120, 480 and 1440 min). For dog, monkey and human, test compounds (2 μM, final solvent concentration 1%) were also incubated at 37° C. and analyzed at five time points (0, 10, 30, 60 and 120 min). […] The samples are analyzed by HPLC-MS. The percentage of parent compound remaining after incubation in plasma is determined.
Numbers only, in %.

CCCCCCCCCCOC(=O)Oc1ccc2c3c1O[C@H]1C(=O)CC[C@@]4(O)C(C2)N(CC2CC2)CC[C@]314 [Compound 10]
0

// for each compound in input: emit % remaining at time point in minutes, 1440 min
1. C=C1CC[C@@]2(O)C3Cc4ccc(OC(=O)CCCCCCCCCCC)c5c4[C@@]2(CCN3CC2CC2)[C@H]1O5 [Compound 59, reference compound]
2. CCCCCCCCCCCCCCCCCC(=O)Oc1ccc2c3c1O[C@H]1C(=O)CC[C@@]4(O)C(C2)N(CC2CC2)CC[C@]314 [Compound 54]
3. CCCCCCCCCCCCCCCCCCCC(=O)Oc1ccc2c3c1O[C@H]1C(=O)CC[C@@]4(O)C(C2)N(CC2CC2)CC[C@]314 [Compound 50]
4. C=C1CC[C@@]2(O)C3Cc4ccc(OC(=O)CCCCCCC/C=C/CCCCCCCC)c5c4[C@@]2(CCN3CC2CC2)[C@H]1O5 [Compound 15]
5. CCCCCCCCCCCCCCCCCCCCCC(=O)Oc1ccc2c3c1O[C@H]1C(=O)CC[C@@]4(O)C(C2)N(CC2CC2)CC[C@]314 [Compound 51]
6. C=C1CC[C@@]2(O)C3Cc4ccc(OC(=O)CCCCCCCCCCCCCCCCCCCCC)c5c4[C@@]2(CCN3CC2CC2)[C@H]1O5 [Compound 14]
7. C=C1CC[C@@]2(O)C3Cc4ccc(OC(=O)OCCCCCCCCCCCCCCCC)c5c4[C@@]2(CCN3CC2CC2)[C@H]1O5 [Compound 19]
8. C=C1CC[C@@]2(O)C3Cc4ccc(OC(=O)OCCCCCCCC)c5c4[C@@]2(CCN3CC2CC2)[C@H]1O5 [Compound 17]

OUTPUT:
[0, 19.4, 73.9, 35, 92.7, 120, 33.3, 0]
